target: Human complement C1s enzyme (Homo sapiens, UniProt P09871); test: Human C1s enzyme assay; type: biochemical; details: human complement C1s enzyme 1.16 nM, substrate Z-L-Lys-SBzl 100 μM, 5 min preincubation; read-out: IC50 (Stars), C1s Inhibiting Activity
Sequence (P09871 438-688 limits assumed): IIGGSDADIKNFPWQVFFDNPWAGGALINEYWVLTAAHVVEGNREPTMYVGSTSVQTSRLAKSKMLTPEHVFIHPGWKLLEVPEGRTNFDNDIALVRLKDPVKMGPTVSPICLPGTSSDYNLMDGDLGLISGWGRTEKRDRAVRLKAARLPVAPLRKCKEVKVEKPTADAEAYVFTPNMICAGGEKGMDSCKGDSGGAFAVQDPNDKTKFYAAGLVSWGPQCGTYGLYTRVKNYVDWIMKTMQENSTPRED
Sequence (P09871 16-437 partner limits assumed): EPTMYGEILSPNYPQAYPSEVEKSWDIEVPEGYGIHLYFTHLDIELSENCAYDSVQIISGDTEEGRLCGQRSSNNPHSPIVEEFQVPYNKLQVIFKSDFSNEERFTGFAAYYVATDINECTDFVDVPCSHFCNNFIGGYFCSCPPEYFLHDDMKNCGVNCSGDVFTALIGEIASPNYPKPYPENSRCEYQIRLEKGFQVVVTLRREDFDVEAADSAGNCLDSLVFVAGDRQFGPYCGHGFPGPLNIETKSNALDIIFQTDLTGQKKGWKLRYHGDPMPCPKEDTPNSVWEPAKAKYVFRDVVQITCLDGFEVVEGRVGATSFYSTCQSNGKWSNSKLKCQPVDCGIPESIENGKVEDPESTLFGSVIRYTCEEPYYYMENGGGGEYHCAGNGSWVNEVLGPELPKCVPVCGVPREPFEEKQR
pIC50: −log10 of the molar value.
Measurement Name: pIC50

C[C@@H](NC(=O)[C@@H]1C[C@@H](OC(F)F)CN1C(=O)CNC(=O)c1cccc(Oc2ccc(F)cc2)c1)c1cc2cnccc2[nH]1
> 7.00
C[C@@H](NC(=O)[C@@H]1C[C@]2(C)C[C@@H]2N1C(=O)CNC(=O)c1ccc(-c2ccc(F)cc2F)cc1)c1cc2cnccc2[nH]1
6.00 to 7.00
O=C(NCC(=O)N1C[C@H](OC(F)F)C[C@H]1C(=O)NCc1ccn2cnnc2c1)c1ccc2c(c1)Oc1ccccc1S2
< 6.00
C[C@@H](NC(=O)[C@@H]1C[C@](F)(CF)CN1C(=O)CNC(=O)c1ccc(-c2ccc(F)cc2F)cc1)c1cc2cnccc2[nH]1
6.00 to 7.00
O=C(NCC(=O)N1C[C@H](OC(F)F)C[C@H]1C(=O)NCc1cc2c(s1)CNCC2)c1ccc2c(c1)Oc1ccccc1S2
> 7.00

Give its pIC50 value. Item: Cc1cc(CN)cc(C2(NC(=O)[C@@H]3C[C@]4(C)C[C@@H]4N3C(=O)CNC(=O)CCCOc3ccccc3)CC2)c1 < 6.00

Consider the molecule O=C(NCC(=O)N1CC2(C[C@H]1C(=O)NCc1ncc[nH]1)OCCO2)c1ccc(Oc2ccccc2)cc1 and give its measured pIC50. < 6.00

Param item = C[C@@H](NC(=O)[C@@H]1C[C@@H](OC(F)F)CN1C(=O)CNC(=O)c1ccc2c(c1)C(F)(F)c1ccccc1-2)c1cc2cnccc2[nH]1 ; retrieve measured pIC50. > 7.00

Given C[C@@]12C[C@@H]1N(C(=O)CNC(=O)c1ccc3c(c1)Oc1ccccc1S3)[C@H](C(=O)NCc1cc3c(s1)CCNC3)C2 , state its recorded pIC50. > 7.00

If you can, please state the reported pIC50 value of COc1ccc2[nH]c(CNC(=O)[C@@H]3CC4(CN3C(=O)CNC(=O)c3ccc5c(c3)Oc3ccccc3S5)OCCO4)cc2c1 . < 6.00
